System: 292921-168-R-J2-PDC KRAS tumor spheroid viability
EXPERIMENTAL DETAILS: Anticancer human tumor 292921-168-R-J2-PDC patient-derived pancreatic carcinoma cell line growth inhibition [KRAS2]
RUN CONDITIONS: curve of first compound; second compound 0.1 µM; spheroids with HUVEC and MSC
pIC50: −log10 of the molar value.
Decision: pIC50 compared against 6; not below it gives Condition met, below it gives Condition not met.

Answered examples (4):
[
  {
    "COMPOUND": "CCN1CCN(Cc2ccc(Nc3ncc(F)c(-c4cc(F)c5nc(C)n(C(C)C)c5c4)n3)nc2)CC1 + COc1cc2nc(C)nc(NC(C)c3cc(N)cc(C(F)(F)F)c3)c2cc1OC1CCOC1",
    "CLASS": "Condition met"
  },
  {
    "COMPOUND": "CC1COCCN1c1cc(-c2ccnn2C)c2ccnc(-c3ccn[nH]3)c2n1 (stereo unspecified) + CNCc1ccccc1-c1csc(C(C)Nc2nc(C)nc3cc(OC)c(OC)cc23)c1",
    "CLASS": "Condition met"
  },
  {
    "COMPOUND": "O=C(c1cc(Cc2n[nH]c(=O)c3ccccc23)ccc1F)N1CCN(C(=O)C2CC2)CC1 + C=CC(=O)N1CCN(c2nc(=O)n(-c3c(C)ccnc3C(C)C)c3nc(-c4c(O)cccc4F)c(F)cc23)C(C)C1",
    "CLASS": "Condition not met"
  },
  {
    "COMPOUND": "CC1OCC2(CCN(c3cnc(Sc4ccnc(N)c4Cl)c(N)n3)CC2)C1N (stereo unspecified) + COc1cc2nc(C)nc(NC(C)c3cc(N)cc(C(F)(F)F)c3)c2cc1OC1CCOC1",
    "CLASS": "Condition met"
  }
]

Here's the next entry for you.
Ask: Check this compound for pIC50 at or above 6: CC(C)NCC(C(=O)N1CCN(c2ncnc3c2C(C)CC3O)CC1)c1ccc(Cl)cc1 (stereo unspecified) + CNCc1ccccc1-c1csc(C(C)Nc2nc(C)nc3cc(OC)c(OC)cc23)c1
Reply: Condition not met

---

System: 292921-168-R-J2-PDC KRAS tumor spheroid viability
EXPERIMENTAL DETAILS: Anticancer human tumor 292921-168-R-J2-PDC cell line growth inhibition [KRAS2];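 note: drug exposure lasted seven days after spheroids formed for three days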;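 for viability, T/C: percent of DMSO vehicle control viability which is 100%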
RUN CONDITIONS: second compound 10 µM; first compound 0.0316 µM; stronger effect = lower value; spheroids with HUVEC and MSC
QUANTITY: viability, T/C (%)
Give bare numbers, in %.

Observe how each entry below is paired with its result.
[
  {
    "MOLECULE": "CC(=O)OC12COC1CC(O)C1(C)C(=O)C(O)C3=C(C)C(OC(=O)C(O)C(NC(=O)OC(C)(C)C)c4ccccc4)CC(O)(C(OC(=O)c4ccccc4)C21)C3(C)C (centres undefined) + CNCc1ccccc1-c1csc(C(C)Nc2nc(C)nc3cc(OC)c(OC)cc23)c1",
    "QUANTITATIVE RESULT": 0.09
  },
  {
    "MOLECULE": "CC(=O)Nc1cccc(-n2c(=O)n(C3CC3)c(=O)c3c(Nc4ccc(I)cc4F)n(C)c(=O)c(C)c32)c1 + CNCc1ccccc1-c1csc(C(C)Nc2nc(C)nc3cc(OC)c(OC)cc23)c1",
    "QUANTITATIVE RESULT": 0.2
  },
  {
    "MOLECULE": "CC(=O)OC12COC1CC(O)C1(C)C(=O)C(O)C3=C(C)C(OC(=O)C(O)C(NC(=O)OC(C)(C)C)c4ccccc4)CC(O)(C(OC(=O)c4ccccc4)C21)C3(C)C (centres undefined) + COc1cc2nc(C)nc(NC(C)c3cc(N)cc(C(F)(F)F)c3)c2cc1OC1CCOC1",
    "QUANTITATIVE RESULT": 13.3
  }
]

I would be grateful if you could provide viability, T/C for each of the following entries.
1. CC(C)n1nc(-c2ccc3oc(N)nc3c2)c2c(N)ncnc21 + CNCc1ccccc1-c1csc(C(C)Nc2nc(C)nc3cc(OC)c(OC)cc23)c1
2. CC1COCCN1c1cc(-c2ccnn2C)c2ccnc(-c3ccn[nH]3)c2n1 (centres undefined) + CNCc1ccccc1-c1csc(C(C)Nc2nc(C)nc3cc(OC)c(OC)cc23)c1
3. CC(C)NCC(C(=O)N1CCN(c2ncnc3c2C(C)CC3O)CC1)c1ccc(Cl)cc1 (centres undefined) + CNCc1ccccc1-c1csc(C(C)Nc2nc(C)nc3cc(OC)c(OC)cc23)c1
4. CN(C)C/C=C/C(=O)Nc1cc2c(Nc3ccc(F)c(Cl)c3)ncnc2cc1O[C@H]1CCOC1 + CNCc1ccccc1-c1csc(C(C)Nc2nc(C)nc3cc(OC)c(OC)cc23)c1

Reply:
1. 0.85
2. 0.09
3. 0.09
4. 0.13

I would be grateful if you could provide viability, T/C for each of the following entries.
1. CC1OCC2(CCN(c3cnc(Sc4ccnc(N)c4Cl)c(N)n3)CC2)C1N (centres undefined) + COc1cc2nc(C)nc(NC(C)c3cc(N)cc(C(F)(F)F)c3)c2cc1OC1CCOC1
2. COc1cc(Nc2ncc3c(n2)-c2ccc(Cl)cc2C(c2c(F)cccc2OC)=NC3)ccc1C(=O)O + CNCc1ccccc1-c1csc(C(C)Nc2nc(C)nc3cc(OC)c(OC)cc23)c1

Reply:
1: 23.1; 2: 0.11

---

System: 292921-168-R-J2-PDC KRAS tumor spheroid viability
EXPERIMENTAL DETAILS: Anticancer human tumor 292921-168-R-J2-PDC cell line growth inhibition [KRAS2];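 note: drug exposure lasted seven days after spheroids formed for three days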;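 for viability, T/C: percent of DMSO vehicle control viability which is 100%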
RUN CONDITIONS: second compound 10 µM; first compound 0.01 µM; stronger effect = lower value; spheroids with HUVEC and MSC
Note to self: use MET only for viability, T/C readings below 20%; a reading exactly at 20% still gets NOT MET.

Ask: Hello, is viability, T/C of the following molecule strictly smaller than 20%? CC1COCCN1c1cc(-c2ccnn2C)c2ccnc(-c3ccn[nH]3)c2n1 (stereo not given) + C=CC(=O)N1CCN(c2nc(=O)n(-c3c(C)ccnc3C(C)C)c3nc(-c4c(O)cccc4F)c(F)cc23)C(C)C1
Reply: MET

Ask: Hello, is viability, T/C of the following molecule strictly smaller than 20%? Cn1ncnc1[C@H]1c2n[nH]c(=O)c3cc(F)cc(c23)N[C@@H]1c1ccc(F)cc1 + CC1OCC2(CCN(c3cnc(Sc4ccnc(N)c4Cl)c(N)n3)CC2)C1N
Reply: NOT MET

Ask: Hello, is viability, T/C of the following molecule strictly smaller than 20%? CC(C)n1nc(-c2ccc3oc(N)nc3c2)c2c(N)ncnc21 + CC1OCC2(CCN(c3cnc(Sc4ccnc(N)c4Cl)c(N)n3)CC2)C1N
Reply: MET

Ask: Hello, is viability, T/C of the following molecule strictly smaller than 20%? CC(=O)Nc1cccc(-n2c(=O)n(C3CC3)c(=O)c3c(Nc4ccc(I)cc4F)n(C)c(=O)c(C)c32)c1 + C=CC(=O)N1CCN(c2nc(=O)n(-c3c(C)ccnc3C(C)C)c3nc(-c4c(O)cccc4F)c(F)cc23)C(C)C1
Reply: MET

---

Tested on: 292921-168-R-J2-PDC KRAS tumor spheroid viability
EXPERIMENTAL DETAILS: Anticancer human tumor 292921-168-R-J2-PDC cell line growth inhibition [KRAS2]; active = viability on the fitted dose curve at most 10% of control; inactive = the rest;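 note: drug exposure lasted seven days after spheroids formed for three days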
RUN CONDITIONS: second compound 0.1 µM; first compound 3.16 µM; spheroids with HUVEC and MSC
Your answer must be one of the following: 1 = active, -1 = inactive

Answered examples (4):
[
  {
    "MOLECULE": "O=C(c1cc(Cc2n[nH]c(=O)c3ccccc23)ccc1F)N1CCN(C(=O)C2CC2)CC1 + COc1cc2nc(C)nc(NC(C)c3cc(N)cc(C(F)(F)F)c3)c2cc1OC1CCOC1",
    "CLASS": -1
  },
  {
    "MOLECULE": "CC(C)NCC(C(=O)N1CCN(c2ncnc3c2C(C)CC3O)CC1)c1ccc(Cl)cc1 (stereo not given) + C=CC(=O)N1CCN(c2nc(OCC3CCCN3C)nc3c2CCN(c2cccc4cccc(C)c24)C3)CC1CC#N",
    "CLASS": -1
  },
  {
    "MOLECULE": "COC(=O)c1ccc2c(C(=Nc3ccc(N(C)C(=O)CN4CCN(C)CC4)cc3)c3ccccc3)c(O)[nH]c2c1 + CNCc1ccccc1-c1csc(C(C)Nc2nc(C)nc3cc(OC)c(OC)cc23)c1",
    "CLASS": 1
  },
  {
    "MOLECULE": "CCNC(=O)CC1N=C(c2ccc(Cl)cc2)c2cc(OC)ccc2-n2c(C)nnc21 (stereo not given) + C=CC(=O)N1CCN(c2nc(=O)n(-c3c(C)ccnc3C(C)C)c3nc(-c4c(O)cccc4F)c(F)cc23)C(C)C1",
    "CLASS": -1
  }
]

Here's the next entry for you.
Ask: Please indicate how the test categorized CC(C)NCC(C(=O)N1CCN(c2ncnc3c2C(C)CC3O)CC1)c1ccc(Cl)cc1 (stereo not given) + C=CC(=O)N1CCN(c2nc(=O)n(-c3c(C)ccnc3C(C)C)c3nc(-c4c(O)cccc4F)c(F)cc23)C(C)C1 .
Reply: -1
